measured-target: T1, SNTG1, Q9NSN8
T1 sequence (Q9NSN8 52-150, limits assumed, looked up): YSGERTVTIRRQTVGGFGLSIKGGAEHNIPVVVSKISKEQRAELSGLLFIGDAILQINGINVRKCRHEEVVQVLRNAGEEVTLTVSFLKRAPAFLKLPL
assay-summary: holdup assay
Set-up: key: below the threshold = too weak to quantify, mostly under pKd 3.1 to 4
experimental-context: plain residues with an end cap or a label only (N-terminal biotin on a linker: ado-ado)

| binder | pKd |
| --- | --- |
| QMNQTLPVQV [EPHB3, P54753] | below the threshold |
| YNNCLEILRV [DCAF7, P61962] | below the threshold |
| LPHPHSTTRV [NLGN2, Q8NFZ4] | below the threshold |

Just for reference, paper PMC9482650 is where these values come from.
